Recorded Bleach Rate T 1/2 values for a group of molecules are listed next.
- measurement description: photochromic response of test squares on an optical bench (sensitivity, saturation optical density, bleach rate)
- Assay type: physicochemical
- measurement context: measured at band B; room temperature (72° F., 22.2° C.) after removal of activating light
Express your answer in min, writing the number without its unit.

Known results for molecules:
1. CCC1(OC)c2ccccc2-c2c1c1c(c3cc(OC)c(OC)cc23)OC(c2ccc(OC)cc2)(c2ccc(N3CCOCC3)cc2)C=C1 (stereo not drawn)    1.43
2. COc1ccc(C2(c3ccc(OC)cc3)C=Cc3c4c(c5c(OC)c(OC)c(OC)cc5c3O2)-c2ccccc2C4c2ccccc2)cc1 (stereo not drawn)    3.05
3. CCCCC1(O)c2ccccc2-c2c1c1c(c3cc(OC)c(OC)cc23)OC(c2ccccc2)(c2ccc(N3CCOCC3)cc2)C=C1 (stereo not drawn)    1.88
4. CCC1(O)c2cc(OC)c(OC)cc2-c2c1c1c(c3ccccc23)OC(c2ccc(OC)cc2)(c2ccc(OC)cc2)C=C1 (stereo not drawn) [Comp. Ex. 3, reference compound]    1.27
5. CCC1(O)c2ccccc2-c2c1c1c(c3cc(OC)c(OC)cc23)OC(c2ccc(OC)cc2)(c2ccc(OC)cc2)C=C1 (stereo not drawn)    1.45

Now, please, on to the next molecule.
// sample COc1cc2c(cc1OC)C(C)(C)c1c3c(c4cc(OC)c(OC)cc4c1-2)OC(c1ccccc1)(c1ccc(N2CCOCC2)cc1)C=C3 (stereo not drawn) , its Bleach Rate T 1/2 was 14.2

----------
- measurement description: Relative ΔOD at Saturation Test
- Type: physicochemical
- measurement context: ΔOD at saturation (Band A)/ΔOD at saturation (Band B)×100
assay metric: Relative ΔOD at Saturation (rating)
Please give the numeric answer without any surrounding text.

Known results for compounds:
1. CCC1(O)c2cc(OC)ccc2-c2c1c1c(c3cc(OC)ccc23)OC(c2ccc(OC)cc2)(c2ccc(OC)cc2)C=C1 (stereo not shown) [Comp. Ex. 2, reference compound]    70
2. COc1ccc(C2(c3ccc(OC)cc3)C=Cc3c4c(c5c(OC)c(OC)c(OC)cc5c3O2)-c2ccccc2C4c2ccccc2)cc1 (stereo not shown)    106
3. CCC1(O)c2ccccc2-c2c1c1c(c3cc(OC)c(OC)cc23)OC(c2ccc(OC)cc2)(c2ccc(N3CCOCC3)cc2)C=C1 (stereo not shown)    104
4. CCC1(O)c2ccccc2-c2c1c1c(c3ccccc23)OC(c2ccc(OC)cc2)(c2ccc(OC)cc2)C=C1 (stereo not shown) [Comp. Ex. 1, reference compound]    59
5. CCC1(O)c2cc(OC)c(OC)cc2-c2c1c1c(c3ccccc23)OC(c2ccc(OC)cc2)(c2ccc(OC)cc2)C=C1 (stereo not shown) [Comp. Ex. 3, reference compound]    71

// sample CCC1(O)c2ccccc2-c2c1c1c(c3cc(OC)c(OC)cc23)OC(c2ccccc2)(c2ccc(N3CCOCC3)cc2)C=C1 (stereo not shown) , its Relative ΔOD at Saturation (rating) was 103

// sample CCCCC1(O)c2cc(OC)c(OC)cc2-c2c1c1c(c3cc(OC)c(OC)cc23)OC(c2ccc(OC)cc2)(c2ccc(N3CCOCC3)cc2)C=C1 (stereo not shown) , its Relative ΔOD at Saturation (rating) was 105

// sample CCC1(O)c2cc(OC)c(OC)cc2-c2c1c1c(c3cc(OC)c(OC)cc23)OC(c2ccc(OC)cc2)(c2ccc(OC)cc2)C=C1 (stereo not shown) , its Relative ΔOD at Saturation (rating) was 151

// sample COc1cc2c(cc1OC)C(C)(C)c1c3c(c4cc(OC)c(OC)cc4c1-2)OC(c1ccccc1)(c1ccc(N2CCOCC2)cc1)C=C3 (stereo not shown) , its Relative ΔOD at Saturation (rating) was 103

// sample CCC1(O)c2ccccc2-c2c1c1c(c3cc(OC)c(OC)cc23)OC(c2ccc(OC)cc2)(c2ccc(OC)cc2)C=C1 (stereo not shown) , its Relative ΔOD at Saturation (rating) was 155

// sample CCC1(O)c2cc(OC)c(OC)cc2-c2c1c1c(c3cc(OC)c(OC)cc23)OC(c2ccc(OC)cc2)(c2ccc(N3CCOCC3)cc2)C=C1 (stereo not shown) , its Relative ΔOD at Saturation (rating) was 106

// sample COc1ccc(C2(c3ccc(N(C)C)cc3)C=Cc3c4c(c5cc(OC)c(OC)cc5c3O2)-c2ccccc2C4(C)C)cc1 (stereo not shown) , its Relative ΔOD at Saturation (rating) was 82

// sample `COc1ccc(C2(c3ccc(OC)cc3)C=Cc3c4c(c5cc(OC)c(OC)cc5c3O2)-c2ccccc2C4(C)C)cc1` , its Relative ΔOD at Saturation (rating) was 156

----------
- measurement description: photochromic response of test squares on an optical bench (sensitivity, saturation optical density, bleach rate)
- Type: physicochemical
- measurement context: measured at band B; room temperature (72° F., 22.2° C.) after removal of activating light
Entry flag: label 1 if Bleach Rate T 1/2 reaches 2 min; label 0 if it does not.

Field: example entries. Status: answers known.
1) CCC1(O)c2ccccc2-c2c1c1c(c3cc(OC)c(OC)cc23)OC(c2ccc(OC)cc2)(c2ccc(N3CCOCC3)cc2)C=C1 (stereo not drawn)    label 0
2) COc1ccc(C2(c3ccc(OC)cc3)C=Cc3c4c(c5cc(OC)c(OC)cc5c3O2)-c2cc(OC)c(OC)cc2C4(C)C)cc1    label 1
3) CCCCC1(O)c2ccccc2-c2c1c1c(c3cc(OC)c(OC)cc23)OC(c2ccc(OC)cc2)(c2ccc(OC)cc2)C=C1 (stereo not drawn)    label 0

input: Form field: Bleach Rate T 1/2 at least 2 min? Entry: CCC1(O)c2cc(OC)ccc2-c2c1c1c(c3cc(OC)ccc23)OC(c2ccc(OC)cc2)(c2ccc(OC)cc2)C=C1 (stereo not drawn) [Comp. Ex. 2, reference compound]
output: label 1

input: Form field: Bleach Rate T 1/2 at least 2 min? Entry: CCC1(O)c2ccccc2-c2c1c1c(c3ccccc23)OC(c2ccc(OC)cc2)(c2ccc(OC)cc2)C=C1 (stereo not drawn) [Comp. Ex. 1, reference compound]
output: label 0

input: Form field: Bleach Rate T 1/2 at least 2 min? Entry: COc1ccc(C2(c3ccc(N4CCOCC4)cc3)C=Cc3c4c(c5cc(OC)c(OC)cc5c3O2)-c2ccccc2C4(C)C)cc1 (stereo not drawn)
output: label 1

----------
- measurement description: lambda max (Vis) of activated photochromic test squares in a Varian Cary 3 uv-visible spectrophotometer
- Format: physicochemical
- measurement context: Band A; activated form in test square
assay metric: λ MAX Vis (Band A) (nm)
Express your answer in nm, writing the number without its unit.

Known results for compounds:
1) COc1cc2c(cc1OC)C(C)(C)c1c3c(c4cc(OC)c(OC)cc4c1-2)OC(c1ccccc1)(c1ccc(N2CCOCC2)cc1)C=C3 (stereo not shown)    485
2) COc1ccc(C2(c3ccc(OC)cc3)C=Cc3c4c(c5cc(OC)c(OC)cc5c3O2)-c2ccccc2C4c2ccccc2)cc1 (stereo not shown)    460
3) CCC1(O)c2ccccc2-c2c1c1c(c3cc(OC)c(OC)cc23)OC(c2ccc(OC)cc2)(c2ccc(N3CCOCC3)cc2)C=C1 (stereo not shown)    480

// sample CCCCC1(O)c2ccccc2-c2c1c1c(c3cc(OC)c(OC)cc23)OC(c2ccccc2)(c2ccc(N3CCOCC3)cc2)C=C1 (stereo not shown) , its λ MAX Vis (Band A) was 485

----------
- measurement description: photochromic response of test squares on an optical bench (sensitivity, saturation optical density, bleach rate)
- Format: physicochemical
- measurement context: Band A; UV exposure 15 minutes; 72° F. (22.2° C.); polymer test square
assay metric: ΔOD @ Saturation (Band A)
Please give the numeric answer without any surrounding text.

Known results for compounds:
1. COc1ccc(C2(c3ccc(N(C)C)cc3)C=Cc3c4c(c5cc(OC)c(OC)cc5c3O2)-c2ccccc2C4(C)C)cc1 (stereo not drawn)    0.41
2. COc1ccc(C2(c3ccc(N4CCOCC4)cc3)C=Cc3c4c(c5cc(OC)c(OC)cc5c3O2)-c2ccccc2C4(C)C)cc1 (stereo not drawn)    0.60

Now, please, on to the next compound.
// sample CCCCC1(O)c2ccccc2-c2c1c1c(c3cc(OC)c(OC)cc23)OC(c2ccccc2)(c2ccc(N3CCOCC3)cc2)C=C1 (stereo not drawn) , its ΔOD @ Saturation (Band A) was 0.37

----------
Recorded λ MAX Vis (Band B) values for a group of molecules are listed next.
- measurement description: lambda max (Vis) of activated photochromic test squares in a Varian Cary 3 uv-visible spectrophotometer
- Format: physicochemical
- measurement context: Band B; activated form in test square
Express your answer in nm, writing the number without its unit.

Known results for molecules:
1. COc1ccc(C2(c3ccc(N4CCOCC4)cc3)C=Cc3c4c(c5cc(OC)c(OC)cc5c3O2)-c2ccccc2C4(C)OC)cc1 (stereo not drawn) [Example 20]    604
2. COc1cc2c(cc1OC)C(C)(C)c1c3c(c4cc(OC)c(OC)cc4c1-2)OC(c1ccccc1)(c1ccc(N2CCOCC2)cc1)C=C3 (stereo not drawn) [Example 2]    618
3. CCCCC1(O)c2ccccc2-c2c1c1c(c3cc(OC)c(OC)cc23)OC(c2ccccc2)(c2ccc(N3CCOCC3)cc2)C=C1 (stereo not drawn) [Example 16]    600

// sample CCC1(CC)c2cc(OC)c(OC)cc2-c2c1c1c(c3cc(OC)c(OC)cc23)OC(c2ccc(OC)cc2)(c2ccc(OC)cc2)C=C1 [Example 6] , its λ MAX Vis (Band B) was 608

// sample CCC1(O)c2cc(OC)c(OC)cc2-c2c1c1c(c3cc(OC)c(OC)cc23)OC(c2ccc(OC)cc2)(c2ccc(N3CCOCC3)cc2)C=C1 (stereo not drawn) [Example 12] , its λ MAX Vis (Band B) was 632

// sample COc1ccc(C2(c3ccc(OC)cc3)C=Cc3c4c(c5c(OC)c(OC)c(OC)cc5c3O2)-c2ccccc2C4c2ccccc2)cc1 (stereo not drawn) [Example 11] , its λ MAX Vis (Band B) was 581
